Just for reference, the supplement of paper PMC6555819 is where these values come from.

# System: PXR:RXRa (NR concentration 270 nM, RXRa partner concentration 90 nM)
# experiment: PBM binding z-score (relative to random genomic background probes); higher = stronger binding; sequences stand for … in GC…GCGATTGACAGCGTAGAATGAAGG
propertyMeasured: PBM binding z-score

- GCAGACAGGTGAAACGCAGTTAACTCAGGGTGGC: -0.255
- CGAACTAGGTCAGAACAGGATAGTGAAGGATGAT: 0.283
- CGTCCAAGGTCAAAGGTCCGTGAAGAGATGACGG: 4.61
- TCATATAGGTAAAAAGTGAAAGTCGGTGTGGTAA: 0.581

* * *

Recorded measurements of PBM binding z-score, one per entry
# Test system: LXRb:RXRa (NR concentration 270 nM, RXRa partner concentration 90 nM)
# experiment: PBM binding z-score (relative to random genomic background probes); higher = stronger binding; sequences stand for … in GC…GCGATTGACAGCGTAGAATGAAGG
propertyMeasured: PBM binding z-score

- TCTTGTAGATCAGCTGGTTAAGAAAGCTGGCCAA: -0.0754
- CTTTACGGGTCACTCCAGGTTATAGCATCGGAGT: 5.61
- CCTACTGGGCCAACGGTCATTGATTCCAATGCTC: -0.198
- ACTATTAGTTGAGACCAGGGCAACCGATAGGTTG: -0.177
- CCAGACAGATGAAAGGTAACTCAGTCTGGTACGC: 0.156
- AGACCAAGGTGATCGTGAGGTCGTTGATACTAAC: 0.98
- GCTCGAAGGACAAGGTCAGAGCTTTGTCCGTAGA: 0.996
- ATATGTAGGTTATCGGGTGATTCAGTTTGCGCAT: 1.33
- AGAATGAGGTTATTCAGATCAGGGAATTGCGGTC: 1.51
- TCGATTAGGTTAGGGGCATTCAGAATGGCGTCGA: 1.5
- ATCGAAAGGTCGAGGTGAGTATCGAGAAAGGGAA: 2.73
- ATCTCCAGGTAAGACTCAGTTCAGTGAAGAACGC: 0.641
- GATACAGGGTCAGCTAGAGGCCAGATTATGGAAA: 2.68
- ATATGTAGGCTAAGGGTCATTCAGGTTGGTTCGC: 3.73
- GCTTACGGGTCAAGGGTTATAGCATGAATAGAAT: 4.68
- CCGACTGGGGCATAAGGTTACCACAAGCCAGCCC: 0.812
- GCTGCTAGGTAAACTGATGGTCAGCTAAAGCTCG: -0.723
- TAGCCTAAGTCAGATCGGGCCAGTATACGCTATA: -0.879

* * *

# reported PBM binding z-score; entries follow
# Test system: PPARg:RXRa (NR concentration 180 nM, RXRa partner concentration 90 nM)
# experiment: PBM binding z-score (relative to random genomic background probes); higher = stronger binding; sequences stand for … in GC…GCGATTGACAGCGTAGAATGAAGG
propertyMeasured: PBM binding z-score

* CAAACTAGGTCAAGGTTAAAGTCGGTTTGTGCCA | 9.29
* ACTATTACTTGACTTAGGGCAACCGATACGACGC | 1.19
* AGAACGAGGGCAATGATTTGATAGCACGGGTGGC | 1.57
* TAGCCTAGGTCAGATCGGCCCAGTATACGCTATA | 1.07
* AGAACGAGGACACGCTGAGTTGATAGCAGAGTAG | 0.748
* CCGACTGGTGCATAAGGTTACCATAAGCCAGCCC | 0.64
* CCTAGCAGGCCAATATGGGTCACTCAAGGCTTGA | 1.57
* CGAACGAGGTCAAGGACAGTGAATCTCCGCACGC | 7.29
* ACAGACAGGTGATGAAGGTAACTCAAGCTATCAT | 0.537
* GGAACGAGGGAAAGTTGATAGCAGAGTTTGATGG | 0.626
* CTAACTAGGTCAAGAGGTCAAAGTCCGCTTCCCG | 10.3
* GCGACTGGGTCAAAGCAGGTTACCATAAGGTTGG | 4.75
* GCTAGCAGGCCATTTGGATCACTCAATGACGGGC | 0.511
* ACAGACAGGTGATGAAGGAAACTCAGGCTATCAT | 0.66
* CAAACTATGTCACGAAAGGTCAAAGTCGAATGAC | 6.17
* CCTTACGGGTCATGGTTATAGCACGGGTGGTACG | 3.99
* ATTAGTTGGTCAGCTGAGGTCACACACAATTCGG | 2.32
* CGAACGAGGGCATGAGTTCATAGCAAATGCCGAT | 2.37

* * *

# Test system: RARg:RXRa (NR concentration 270 nM, RXRa partner concentration 90 nM)
# experiment: PBM binding z-score (relative to random genomic background probes); higher = stronger binding; sequences stand for … in GC…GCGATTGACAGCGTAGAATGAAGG
propertyMeasured: PBM binding z-score

- ATCTCTAGGTAAAGATAGTTCAGCGAATGCAAAT: 0.793
- ATCTCTAGGTAACAAGTTCATTGAAAGAGAGGAC: 2.04
- ATATGTAGGTTAGCTGGGGTCATTAAGACTAGGC: 3.87
- CGTCCAAGGTCATAGGAGGTCTGTGAAGACAGAT: 5.85
- GCAGACAGGAGAAACGCAGGTAACTCAGGGTGGC: -0.38
- CCGGCTGGGGCAGAAAGGTTACCATACCATCCGG: 1.68
- CGAACGAGGGCATGAGTTGATATCAAATGCCGAT: 1.37
- GGAACTAGGGCAAGTTGATAGCAGAGTTTGATGG: 0.675
- TTACCAAGCTGAGCTGAGGTCGTTGATCCAACTC: -0.204
- TATACAGGGTAAAAGGCCAGAGTACGAATGTCGA: 1.56
- TCATATAGGTTAATGCTAGGTGAAAGTCCGATCT: 1.98
- TCCTATAGGTAAAAGGTGAAAGTCGGTGTGGTAA: 1.83
- TCTTGTAGATCAATCAGGTTAAGAAAGCCTGAGT: 0.0482
- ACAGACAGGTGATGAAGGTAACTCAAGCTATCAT: 0.288
- CCTATTAGTAGACCATAAGGGCAACCGAAGCTCG: 0.962
- CAAACTGGGTCAAGGTCAAAGTCGGTTTGTGCCA: 5.77
- TCATATAGGTAAAGGAGAAAGTCGAACGATATGA: 0.547
- CCAGGCAGGTGAGAAGGTAACTCAGCCTCGATTA: 0.181
- ATCTCTAGGTAACCAAATTCAGTGAATGCCGAAC: 0.22
- ACTATTAGTTGACTTAGGGGAACCGATACGACGC: 0.568
- CCGACTGGGGCAAGGTTACGATAACGCACAGCCA: 1.18
- CCTAGTTGGTCAAGGTTACACACGCTATAGGTAC: 1.49
- TAGCCTAGGTCATCCAGGGGCCAGTATAGAAAGC: 6.41
- TCTAGCAGGCCAGAGTGTCACTCAAGAGGTACGG: 0.145
- TCAGACAGGTGAAGTTAACTCAGGTACGCAGTCG: 0.588
- AGTCAAAGTTCAGGACGAGGTAACGGAAAGCACG: 4.69
- CTCGAAAGGTCGGTTGAGGTGAGTTTACGGATAA: 2.78
- TCGACTAGGTTAGTCGGGGCATTCAGCCAACATA: -0.0311
- TCTTGTAGATCAACAGGTTAAGAAAGCTGGCCAA: 0.2
- CCTCGTAGGACAGAAGGTCAGAGCTGTCCGCTTT: 3.02
- TAGCCCAGGTCATGGGCCAGTATACCACGCGAAC: 4.42
- TCTATGAGTTGAAGGGCAACCGACGAGTCCGTTT: 0.637
- CCAGACAGGTGAAAAGTAACTCAGTCTGGTACGC: 0.316
- ATCGAAAGGTCGACGAGGTGAGTTTACACCGTTT: 4.11
- CGTCCAAGGTCAATGCTAGGTCAGGGAAAGCATT: 7.46
- CCTTACGGGTCACGAAGTTATAGCACGACGAGCG: 5.21
- GCTATTAGTTGAAAGAGCAACCGAATGATTCTCG: -0.181
- CGTCAATGTTCAACTAAGGTAACGTAAAGCACGC: 0.459
- TCGCCTAGGTCATTGGGCCAGTATAGTACGCATC: 3.95
- GGAACGAGGGCAAGTAGATAGCAGAGTTTGATGG: 1.3
- CCGCCTGGGGCATAAGGTTACCATAAGCCAGCCC: 1.82
- AGTCAAAGTTCAGTACGAGGTAACGTAAAGCACG: 4.32
- TCTCGAAGGACACGAAGGTCAGAGCTTTCCAGAG: 2.99
- CGGCCAAGGTCAGAGAGGTCAGTGAATGCCGAGT: 6.22
- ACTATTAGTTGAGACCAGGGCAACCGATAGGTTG: 0.276
